biological target: LC8 (Homo sapiens, UniProt Q96FJ2); construct: 6xHis (N); made in house; host or cells: E. coli BL21 (DE3) Rosetta; test: isothermal titration calorimetry, LCA5 peptide injected to LC8; assay type: binding; conditions: MicroCal PEAQ-ITC, PBS pH 7.4, 1 mM TCEP, 25 °C; peptide injected 18 x 2 μl into LC8
Sequence (Q96FJ2 whole entry): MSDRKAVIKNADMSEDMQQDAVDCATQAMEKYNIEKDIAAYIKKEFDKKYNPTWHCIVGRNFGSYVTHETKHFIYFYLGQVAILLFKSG
Where no end group is shown, it is not given here.
readout: pKd
Remember, pKd is on a log scale: it is -log10 of the molar concentration.

Problem: Return reported pKd; argument: DLCTKGVQTME [LCA5 peptide]
Solution: 5.59
